- test system: T1, mouse DLL4 on cells (mouse, UniProt Q9JI71 27-686)
- T1 construct: whole, on cells; also called mouse DLL4-293G; mu DLL4 cells
- T1 sequence (Q9JI71 27-686): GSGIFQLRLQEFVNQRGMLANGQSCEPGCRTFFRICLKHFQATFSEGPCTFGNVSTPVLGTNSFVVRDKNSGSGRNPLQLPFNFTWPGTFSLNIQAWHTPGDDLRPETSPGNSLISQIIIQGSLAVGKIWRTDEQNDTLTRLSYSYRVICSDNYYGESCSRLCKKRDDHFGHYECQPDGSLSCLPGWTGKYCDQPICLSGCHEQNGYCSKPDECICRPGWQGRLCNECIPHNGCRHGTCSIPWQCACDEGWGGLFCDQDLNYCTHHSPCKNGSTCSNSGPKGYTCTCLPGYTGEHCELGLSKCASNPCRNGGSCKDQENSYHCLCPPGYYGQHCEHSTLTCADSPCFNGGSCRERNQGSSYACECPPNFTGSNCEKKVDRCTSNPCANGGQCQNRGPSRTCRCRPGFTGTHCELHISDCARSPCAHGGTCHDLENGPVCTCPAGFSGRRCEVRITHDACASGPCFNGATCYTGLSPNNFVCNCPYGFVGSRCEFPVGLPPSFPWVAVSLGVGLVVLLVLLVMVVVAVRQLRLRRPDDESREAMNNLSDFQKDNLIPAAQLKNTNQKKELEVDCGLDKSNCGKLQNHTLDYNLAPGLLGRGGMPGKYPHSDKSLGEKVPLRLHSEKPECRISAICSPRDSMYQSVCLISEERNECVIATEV
- assay: FACS, direct binding to DLL4 cells
Listing of recorded EC50 by entry.

binder: h1A11.A8 (antibody, V domains shown, also called h1A11.A8 VH / h1A11VL.1) VH: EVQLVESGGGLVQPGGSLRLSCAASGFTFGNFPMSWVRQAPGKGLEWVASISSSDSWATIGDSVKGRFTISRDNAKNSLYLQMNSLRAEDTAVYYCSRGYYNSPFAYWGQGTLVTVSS VL: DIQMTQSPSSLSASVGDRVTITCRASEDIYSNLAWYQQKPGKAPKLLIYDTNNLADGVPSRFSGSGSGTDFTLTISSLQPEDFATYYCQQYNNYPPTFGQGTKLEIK
EC50, nM: 0.744

binder: h1A11.A11 (antibody, V domains shown, also called h1A11.A11 VH / h1A11VL.1) VH: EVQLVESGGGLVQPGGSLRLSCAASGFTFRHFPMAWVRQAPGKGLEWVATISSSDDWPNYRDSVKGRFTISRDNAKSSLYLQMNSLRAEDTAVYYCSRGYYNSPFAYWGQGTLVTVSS VL: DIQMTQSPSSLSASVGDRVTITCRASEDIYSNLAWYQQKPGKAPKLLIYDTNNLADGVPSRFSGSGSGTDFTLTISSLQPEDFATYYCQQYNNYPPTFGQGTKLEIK
EC50, nM: 0.5

binder: h1A11.A2 (antibody, V domains shown, also called h1A11VH.1 / h1A11.A2 VL) VH: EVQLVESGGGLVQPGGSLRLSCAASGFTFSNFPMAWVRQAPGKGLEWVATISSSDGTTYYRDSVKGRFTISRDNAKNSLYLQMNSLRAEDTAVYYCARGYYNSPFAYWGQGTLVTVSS VL: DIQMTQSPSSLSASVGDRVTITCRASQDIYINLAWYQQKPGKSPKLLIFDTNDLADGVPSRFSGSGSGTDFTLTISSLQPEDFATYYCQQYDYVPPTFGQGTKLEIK
EC50, nM: 0.634

binder: h1A11.G3 (antibody, V domains shown, also called h1A11.G3 VH / h1A11.E12 VL) VH: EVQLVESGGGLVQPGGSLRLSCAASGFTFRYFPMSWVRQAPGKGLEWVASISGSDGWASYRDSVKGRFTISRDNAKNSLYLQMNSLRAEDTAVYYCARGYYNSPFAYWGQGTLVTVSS VL: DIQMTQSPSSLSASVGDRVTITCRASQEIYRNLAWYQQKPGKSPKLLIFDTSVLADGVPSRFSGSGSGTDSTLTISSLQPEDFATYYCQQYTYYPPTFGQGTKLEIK
EC50, nM: 1.4
